target.or.system: ALK (Homo sapiens, UniProt Q9UM73)
Construct: host or cells: baculovirus expression system
Sequence (Q9UM73 19-1620): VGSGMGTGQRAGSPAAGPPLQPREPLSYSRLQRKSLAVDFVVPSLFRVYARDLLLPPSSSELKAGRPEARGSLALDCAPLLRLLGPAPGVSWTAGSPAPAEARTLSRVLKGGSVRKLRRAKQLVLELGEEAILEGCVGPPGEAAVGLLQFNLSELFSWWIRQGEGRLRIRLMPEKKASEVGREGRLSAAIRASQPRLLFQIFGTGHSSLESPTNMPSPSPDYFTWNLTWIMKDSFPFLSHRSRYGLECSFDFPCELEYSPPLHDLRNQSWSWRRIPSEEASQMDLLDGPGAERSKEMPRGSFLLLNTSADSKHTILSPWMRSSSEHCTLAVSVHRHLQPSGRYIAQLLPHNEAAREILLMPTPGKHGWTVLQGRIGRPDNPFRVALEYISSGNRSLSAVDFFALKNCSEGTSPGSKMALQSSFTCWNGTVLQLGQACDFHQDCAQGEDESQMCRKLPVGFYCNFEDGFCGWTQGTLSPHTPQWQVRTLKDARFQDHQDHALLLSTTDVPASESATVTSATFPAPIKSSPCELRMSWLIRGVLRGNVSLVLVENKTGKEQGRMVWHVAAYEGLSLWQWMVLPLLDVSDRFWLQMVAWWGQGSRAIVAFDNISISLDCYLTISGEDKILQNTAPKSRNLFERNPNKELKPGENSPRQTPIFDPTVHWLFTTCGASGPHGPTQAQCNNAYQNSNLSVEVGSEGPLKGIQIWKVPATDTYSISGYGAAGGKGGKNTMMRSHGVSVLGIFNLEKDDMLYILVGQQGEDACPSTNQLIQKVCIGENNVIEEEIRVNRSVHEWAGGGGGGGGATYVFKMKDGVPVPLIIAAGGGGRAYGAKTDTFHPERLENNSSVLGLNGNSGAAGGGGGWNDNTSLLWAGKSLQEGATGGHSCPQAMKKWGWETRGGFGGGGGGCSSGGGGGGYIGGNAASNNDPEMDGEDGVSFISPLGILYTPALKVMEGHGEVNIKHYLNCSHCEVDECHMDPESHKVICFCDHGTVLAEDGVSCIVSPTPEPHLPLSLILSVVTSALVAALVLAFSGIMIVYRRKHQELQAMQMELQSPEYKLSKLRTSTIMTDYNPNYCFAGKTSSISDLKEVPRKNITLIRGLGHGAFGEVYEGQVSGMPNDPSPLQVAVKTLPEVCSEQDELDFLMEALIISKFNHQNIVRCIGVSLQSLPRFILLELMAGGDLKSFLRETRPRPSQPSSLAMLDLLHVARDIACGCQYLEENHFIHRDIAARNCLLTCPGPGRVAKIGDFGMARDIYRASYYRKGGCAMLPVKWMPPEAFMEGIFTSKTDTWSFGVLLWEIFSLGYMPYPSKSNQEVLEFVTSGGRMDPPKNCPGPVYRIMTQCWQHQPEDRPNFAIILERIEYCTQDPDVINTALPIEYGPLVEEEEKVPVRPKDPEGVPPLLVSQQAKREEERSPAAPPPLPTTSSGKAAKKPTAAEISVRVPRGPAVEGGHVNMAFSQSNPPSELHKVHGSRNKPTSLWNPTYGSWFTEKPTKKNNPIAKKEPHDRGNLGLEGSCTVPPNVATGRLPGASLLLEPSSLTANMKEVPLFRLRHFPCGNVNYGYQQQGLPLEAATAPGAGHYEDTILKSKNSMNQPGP
experiment.summary: ALK Kinase Assay (ELISA/TRF, PLC-γ substrate)
Assay type: biochemical
reported.conditions: ALK Kinase Inhibition; read-out: ALK Potency
test.readout: IC50

What IC50 appears in the records for this compound with ALK (Homo sapiens, UniProt Q9UM73)? OCCN1CCN(c2ccc(Nc3ncc4ccc(-c5cccnc5)n4n3)cc2)CC1
100 to 1000 nM

What IC50 appears in the records for this compound with ALK (Homo sapiens, UniProt Q9UM73)? CN(c1ccccc1-c1ccc2cnc(Nc3ccc(N4CCOCC4)cc3F)nn12)S(C)(=O)=O
100 to 1000 nM

What IC50 appears in the records for this compound with ALK (Homo sapiens, UniProt Q9UM73)? CN1CCN(c2ccc(Nc3ncc4ccc(Nc5ccccc5)n4n3)cc2)CC1
1000 to 10000 nM

What IC50 appears in the records for this compound with ALK (Homo sapiens, UniProt Q9UM73)? COc1cc(N2CCC(C(=O)N3CCN(C)CC3)CC2)ccc1Nc1ncc2ccc(-c3ccccc3OC)n2n1
< 100 nM
